Target: SRPK2 (human)
Assay: radiometric filter-binding kinase assay, Kinase HotSpot
Details: compound 0.5 µM; ATP 10 µM

line_notation: COc1ccc(Cl)cc1NC(=O)Nc1cc(C)nc2ccccc12
study_target: SRPK2 (human)
residual activity: 94.9%

line_notation: COc1cc2ncnc(Nc3ccc(Oc4ccccc4)cc3)c2cc1OC
study_target: SRPK2 (human)
residual activity: 101%

line_notation: N#Cc1c[nH]c2c[nH]/c(=N\Cc3cccnc3)cc2/c1=N\c1ccc(F)c(Cl)c1
study_target: SRPK2 (human)
residual activity: 101%

line_notation: O=C1C(Cl)=C(N2C(=O)CCC2=O)C(=O)c2ccccc21
study_target: SRPK2 (human)
residual activity: 100%

line_notation: COc1ccc(S(=O)(=O)N(CCO)c2ccccc2CN(C)C/C=C/c2ccc(Cl)cc2)cc1
study_target: SRPK2 (human)
residual activity: 98.5%

line_notation: O=C(c1cc2cc(O)ccc2[nH]1)c1cc2cc(O)ccc2[nH]1
study_target: SRPK2 (human)
residual activity: 97.1%

line_notation: Cc1cccc(-c2nc(C(C)(C)C)[nH]c2-c2ccc3c(c2)OCO3)n1
study_target: SRPK2 (human)
residual activity: 95.8%

line_notation: Ic1cccc(CSc2nnc(-c3ccncc3)o2)c1
study_target: SRPK2 (human)
residual activity: 97.4%

line_notation: COc1ccc2c(c1)c(C1=C(c3c[nH]c4ccccc34)C(=O)NC1=O)cn2CCCN(C)C
study_target: SRPK2 (human)
residual activity: 88%

line_notation: CS(=O)(=O)CCNCc1ccc(-c2ccc3ncnc(Nc4ccc(OCc5cccc(F)c5)c(Cl)c4)c3c2)o1
study_target: SRPK2 (human)
residual activity: 88%

line_notation: CN(C)S(=O)(=O)c1ccc2c(c1)/C(=C/c1cc3c([nH]1)CCCC3)C(=O)N2
study_target: SRPK2 (human)
residual activity: 50.3%

line_notation: COc1ccc2c(c1)/C(=C/c1cnc[nH]1)C(O)=N2
study_target: SRPK2 (human)
residual activity: 101%

line_notation: Cn1c2ccccc2c2c3c(c4c5ccccc5n(CCC#N)c4c21)CNC3=O
study_target: SRPK2 (human)
residual activity: 95%

* * *

Molecular target: CLK2 (human) (UniProt P49760)
Sequence (P49760 whole entry, looked up): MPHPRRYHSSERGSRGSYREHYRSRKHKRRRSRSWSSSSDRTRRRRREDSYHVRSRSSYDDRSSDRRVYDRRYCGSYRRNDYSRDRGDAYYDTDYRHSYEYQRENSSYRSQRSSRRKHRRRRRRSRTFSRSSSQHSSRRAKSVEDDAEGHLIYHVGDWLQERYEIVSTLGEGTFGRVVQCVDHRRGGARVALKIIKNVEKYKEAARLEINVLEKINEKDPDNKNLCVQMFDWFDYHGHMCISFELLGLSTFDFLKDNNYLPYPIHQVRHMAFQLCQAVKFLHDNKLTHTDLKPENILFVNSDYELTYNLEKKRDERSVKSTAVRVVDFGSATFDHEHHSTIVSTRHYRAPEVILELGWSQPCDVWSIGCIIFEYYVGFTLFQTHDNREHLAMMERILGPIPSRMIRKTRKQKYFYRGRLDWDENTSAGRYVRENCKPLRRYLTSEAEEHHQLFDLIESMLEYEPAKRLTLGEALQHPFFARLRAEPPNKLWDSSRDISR
Assay: radiometric filter-binding kinase assay, Kinase HotSpot
Conditions: compound 0.5 µM; ATP 10 µM
residual activity values for the compounds below.

line_notation: Ic1cccc(CSc2nnc(-c3ccncc3)o2)c1
residual activity / %: 104
--
line_notation: CS(=O)(=O)CCNCc1ccc(-c2ccc3ncnc(Nc4ccc(OCc5cccc(F)c5)c(Cl)c4)c3c2)o1
residual activity / %: 95.1
--
line_notation: O=C(c1cc2cc(O)ccc2[nH]1)c1cc2cc(O)ccc2[nH]1
residual activity / %: 105
--
line_notation: CCCCc1c(-c2ccc(OC)cc2)[nH]c2nccnc12
residual activity / %: 85.3
--
line_notation: CN(C)CCCn1cc(C2=C(c3c[nH]c4ccccc34)C(=O)NC2=O)c2ccccc21
residual activity / %: 28
--
line_notation: Cc1cccc(-c2nc(C(C)(C)C)[nH]c2-c2ccc3c(c2)OCO3)n1
residual activity / %: 95.2
--
line_notation: COc1cc(Nc2c(C#N)cnc3cc(OCCCN4CCN(C)CC4)c(OC)cc23)c(Cl)cc1Cl
residual activity / %: 69.3
--
line_notation: COc1cc2ncnc(Nc3ccc(Oc4ccccc4)cc3)c2cc1OC
residual activity / %: 103
--
line_notation: Fc1ccc(-c2nc3n(c2-c2ccncc2)CCS3)cc1
residual activity / %: 105
--
line_notation: Cn1c2ccccc2c2c3c(c4c5ccccc5n(CCC#N)c4c21)CNC3=O
residual activity / %: 88.7
--
line_notation: O=C1NC(=O)c2c1c1c3ccccc3[nH]c1n1cncc21
residual activity / %: 94.7
--
line_notation: CC(C)(C)c1cc(C=C(C#N)C#N)cc(Br)c1O
residual activity / %: 104
--
line_notation: CN(C)S(=O)(=O)c1ccc2c(c1)/C(=C/c1cc3c([nH]1)CCCC3)C(=O)N2
residual activity / %: 32.1

* * *

Target: CDK9 CCNT1 (human) (UniProt P50750+O60563)
Sequence (O60563 whole entry, looked up): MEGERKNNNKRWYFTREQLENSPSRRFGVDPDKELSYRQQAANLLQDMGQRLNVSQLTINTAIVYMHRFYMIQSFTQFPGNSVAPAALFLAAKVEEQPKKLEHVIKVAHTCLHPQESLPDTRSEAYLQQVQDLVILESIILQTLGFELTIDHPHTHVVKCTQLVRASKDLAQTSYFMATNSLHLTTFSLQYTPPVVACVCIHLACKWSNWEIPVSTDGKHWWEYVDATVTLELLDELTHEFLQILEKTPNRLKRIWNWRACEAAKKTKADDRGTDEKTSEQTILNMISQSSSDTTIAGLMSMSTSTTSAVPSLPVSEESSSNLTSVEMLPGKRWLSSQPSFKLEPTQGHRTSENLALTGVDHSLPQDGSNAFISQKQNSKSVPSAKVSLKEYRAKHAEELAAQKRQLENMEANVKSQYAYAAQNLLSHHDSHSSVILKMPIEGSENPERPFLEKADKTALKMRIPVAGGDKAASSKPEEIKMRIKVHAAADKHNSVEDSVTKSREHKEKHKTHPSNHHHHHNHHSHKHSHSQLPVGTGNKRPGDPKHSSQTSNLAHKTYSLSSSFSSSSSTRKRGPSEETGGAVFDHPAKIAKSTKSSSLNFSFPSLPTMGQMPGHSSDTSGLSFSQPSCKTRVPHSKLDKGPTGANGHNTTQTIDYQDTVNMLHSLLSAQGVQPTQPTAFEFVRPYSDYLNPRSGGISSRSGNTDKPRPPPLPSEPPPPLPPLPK
Sequence (P50750 whole entry, looked up): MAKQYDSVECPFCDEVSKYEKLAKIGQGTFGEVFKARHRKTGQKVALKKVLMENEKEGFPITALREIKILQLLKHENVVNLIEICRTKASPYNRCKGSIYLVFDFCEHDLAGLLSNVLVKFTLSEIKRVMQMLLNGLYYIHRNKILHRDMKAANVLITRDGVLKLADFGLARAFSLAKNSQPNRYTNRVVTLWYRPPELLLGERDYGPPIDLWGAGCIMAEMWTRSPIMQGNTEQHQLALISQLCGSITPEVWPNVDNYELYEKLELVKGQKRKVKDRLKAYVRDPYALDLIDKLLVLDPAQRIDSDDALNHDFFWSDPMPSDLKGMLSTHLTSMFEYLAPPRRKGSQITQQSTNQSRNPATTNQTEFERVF
Test: radiometric filter-binding kinase assay, Kinase HotSpot
Conditions: compound 0.5 µM; ATP 10 µM
residual activity values for the compounds below.

line_notation: O=C(c1cc2cc(O)ccc2[nH]1)c1cc2cc(O)ccc2[nH]1
residual activity: 76.6%

line_notation: Cn1c2ccccc2c2c3c(c4c5ccccc5n(CCC#N)c4c21)CNC3=O
residual activity: 46.8%

line_notation: Cc1cccc(-c2nc(C(C)(C)C)[nH]c2-c2ccc3c(c2)OCO3)n1
residual activity: 88.5%

* * *

Target: PASK (human)
Assay: radiometric filter-binding kinase assay, Kinase HotSpot
Conditions: compound 0.5 µM; ATP 10 µM
measured_quantity: residual activity (%)

line_notation: CN(C)CCCn1cc(C2=C(c3c[nH]c4ccccc34)C(=O)NC2=O)c2ccccc21
reported_result: 67
--
line_notation: COc1cc(Nc2c(C#N)cnc3cc(OCCCN4CCN(C)CC4)c(OC)cc23)c(Cl)cc1Cl
reported_result: 109
--
line_notation: Fc1ccc(-c2nc3n(c2-c2ccncc2)CCS3)cc1
reported_result: 109
--
line_notation: N#Cc1c[nH]c2c[nH]/c(=N\Cc3cccnc3)cc2/c1=N\c1ccc(F)c(Cl)c1
reported_result: 124
--
line_notation: COc1cc2ncnc(Nc3ccc(OCc4ccccc4)cc3)c2cc1OC
reported_result: 98.6
--
line_notation: N#C/C(=C\c1ccc(O)c(O)c1)C(=O)NCc1ccccc1
reported_result: 95.1
--
line_notation: NC(=O)c1cccc(-c2cc(Nc3ccc(OC(F)(F)F)cc3)ncn2)c1
reported_result: 100
--
line_notation: Cc1cccc(-c2nc(C(C)(C)C)[nH]c2-c2ccc3c(c2)OCO3)n1
reported_result: 78.9
--
line_notation: CN(C)S(=O)(=O)c1ccc2c(c1)/C(=C/c1cc3c([nH]1)CCCC3)C(=O)N2
reported_result: 95.6
--
line_notation: Ic1cccc(CSc2nnc(-c3ccncc3)o2)c1
reported_result: 100
--
line_notation: CO[C@@H]1[C@H](N(C)C(=O)c2ccccc2)C[C@H]2O[C@]1(C)n1c3ccccc3c3c4c(c5c6ccccc6n2c5c31)C(=O)NC4
reported_result: 90.9
--
line_notation: COc1ccc(S(=O)(=O)N(CCO)c2ccccc2CN(C)C/C=C/c2ccc(Cl)cc2)cc1
reported_result: 103
--
line_notation: CN(C)c1ccc(/C=C2\C(=O)Nc3ccccc32)cc1
reported_result: 95
--
line_notation: COc1ccc(Cl)cc1NC(=O)Nc1cc(C)nc2ccccc12
reported_result: 97.6
--
line_notation: O=C1Nc2ccc(Br)cc2/C1=C\c1cc2c([nH]1)CCCC2
reported_result: 98.9
--
line_notation: CCCCc1c(-c2ccc(OC)cc2)[nH]c2nccnc12
reported_result: 97.6
--
line_notation: COc1ccc(C(=O)Nc2sc3c(c2C(N)=O)CCCC3)cc1OC
reported_result: 101

* * *

residual activity values for the molecules below.
Target: BRAF (human) (UniProt P15056)
Sequence (P15056 whole entry, looked up): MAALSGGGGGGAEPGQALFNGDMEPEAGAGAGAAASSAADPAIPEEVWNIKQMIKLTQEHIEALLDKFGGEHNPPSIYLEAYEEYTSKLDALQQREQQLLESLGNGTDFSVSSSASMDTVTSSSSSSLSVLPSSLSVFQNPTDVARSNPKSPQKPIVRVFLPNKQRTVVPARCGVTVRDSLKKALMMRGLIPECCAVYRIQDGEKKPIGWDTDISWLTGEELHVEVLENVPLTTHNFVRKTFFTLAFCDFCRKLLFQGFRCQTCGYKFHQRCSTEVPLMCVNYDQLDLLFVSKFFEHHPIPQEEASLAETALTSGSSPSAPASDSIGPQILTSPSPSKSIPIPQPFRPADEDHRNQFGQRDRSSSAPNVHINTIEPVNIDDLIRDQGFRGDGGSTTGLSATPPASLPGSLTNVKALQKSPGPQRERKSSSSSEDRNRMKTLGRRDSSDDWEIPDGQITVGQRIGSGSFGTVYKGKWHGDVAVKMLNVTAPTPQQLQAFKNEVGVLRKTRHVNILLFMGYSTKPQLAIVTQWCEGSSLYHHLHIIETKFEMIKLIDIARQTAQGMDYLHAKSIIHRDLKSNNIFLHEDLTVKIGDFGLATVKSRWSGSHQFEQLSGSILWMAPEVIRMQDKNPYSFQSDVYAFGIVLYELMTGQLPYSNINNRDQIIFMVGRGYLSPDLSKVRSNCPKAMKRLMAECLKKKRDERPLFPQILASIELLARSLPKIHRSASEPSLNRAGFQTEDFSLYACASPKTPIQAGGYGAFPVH
Test: radiometric filter-binding kinase assay, Kinase HotSpot
Conditions: compound 0.5 µM; ATP 10 µM

line_notation: COc1ccc(Cl)cc1NC(=O)Nc1cc(C)nc2ccccc12
residual activity (%): 98.9

line_notation: O=C1Nc2ccc(Br)cc2/C1=C\c1cc2c([nH]1)CCCC2
residual activity (%): 92.5

line_notation: Cc1cccc(-c2nc(C(C)(C)C)[nH]c2-c2ccc3c(c2)OCO3)n1
residual activity (%): 111

line_notation: CO[C@@H]1[C@H](N(C)C(=O)c2ccccc2)C[C@H]2O[C@]1(C)n1c3ccccc3c3c4c(c5c6ccccc6n2c5c31)C(=O)NC4
residual activity (%): 106

line_notation: CN(C)CCCn1cc(C2=C(c3c[nH]c4ccccc34)C(=O)NC2=O)c2ccccc21
residual activity (%): 103

line_notation: O=C1NC(=O)c2c1c1c3ccccc3[nH]c1n1cncc21
residual activity (%): 101

line_notation: N#C/C(=C\c1ccc(O)c(O)c1)C(=O)NCc1ccccc1
residual activity (%): 109

* * *

residual activity values for the molecules below.
Target: NEK11 (human) (UniProt Q8NG66)
Sequence (Q8NG66 whole entry, looked up): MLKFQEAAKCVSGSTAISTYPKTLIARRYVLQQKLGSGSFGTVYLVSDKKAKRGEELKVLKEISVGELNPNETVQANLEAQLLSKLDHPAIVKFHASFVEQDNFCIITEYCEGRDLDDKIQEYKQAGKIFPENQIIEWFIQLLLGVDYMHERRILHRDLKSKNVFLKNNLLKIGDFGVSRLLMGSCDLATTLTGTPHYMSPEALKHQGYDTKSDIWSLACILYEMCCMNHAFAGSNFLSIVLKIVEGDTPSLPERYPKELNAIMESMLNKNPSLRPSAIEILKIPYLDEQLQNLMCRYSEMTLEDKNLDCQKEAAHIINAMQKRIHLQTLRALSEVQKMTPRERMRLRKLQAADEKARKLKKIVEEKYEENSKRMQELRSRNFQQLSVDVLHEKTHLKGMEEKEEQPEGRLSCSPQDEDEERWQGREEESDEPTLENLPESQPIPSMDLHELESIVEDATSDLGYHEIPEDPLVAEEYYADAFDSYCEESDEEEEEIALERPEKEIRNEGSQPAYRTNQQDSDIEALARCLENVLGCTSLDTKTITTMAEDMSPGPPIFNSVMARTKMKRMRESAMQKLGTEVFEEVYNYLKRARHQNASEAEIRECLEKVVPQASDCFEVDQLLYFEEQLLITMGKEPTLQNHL
Test: radiometric filter-binding kinase assay, Kinase HotSpot
Details: compound 0.5 µM; ATP 10 µM

line_notation: O=C1C(Cl)=C(N2C(=O)CCC2=O)C(=O)c2ccccc21
measurement_unit: %
residual activity: 101
//
line_notation: Cc1nc(-c2ccccc2)c(-c2ccncc2)o1
measurement_unit: %
residual activity: 76.7
//
line_notation: COc1cc2ncnc(Nc3ccc(OCc4ccccc4)cc3)c2cc1OC
measurement_unit: %
residual activity: 90.4
//
line_notation: COc1ccc2c(c1)c(C1=C(c3c[nH]c4ccccc34)C(=O)NC1=O)cn2CCCN(C)C
measurement_unit: %
residual activity: 91.6
//
line_notation: O=C1c2ccccc2-c2nc3nnnn3nc21
measurement_unit: %
residual activity: 88
//
line_notation: N#C/C(=C\c1ccc(O)c(O)c1)C(=O)NCc1ccccc1
measurement_unit: %
residual activity: 95.4
//
line_notation: COc1ccc2c(c1)/C(=C/c1cnc[nH]1)C(O)=N2
measurement_unit: %
residual activity: 84.8
//
line_notation: CN(C)S(=O)(=O)c1ccc2c(c1)/C(=C/c1cc3c([nH]1)CCCC3)C(=O)N2
measurement_unit: %
residual activity: 82.5
//
line_notation: COc1ccc(C(=O)Nc2sc3c(c2C(N)=O)CCCC3)cc1OC
measurement_unit: %
residual activity: 102
//
line_notation: Cc1cncc2cccc(S(=O)(=O)N3CCCN(C(=O)CN)C[C@H]3C)c12
measurement_unit: %
residual activity: 84.2
//
line_notation: Fc1ccc(-c2nc3n(c2-c2ccncc2)CCS3)cc1
measurement_unit: %
residual activity: 71.4
